Data provenance is the supplement of paper PMC7877785.

Recorded measurements of self-splicing fitness (ln), one per entry
experiment.description: self-splicing fitness, log relative to wild type (ln ratio); higher = more splicing; Tetrahymena group I intron in knt gene, E. coli kanamycin selection, DiMSum; sequences stand for … in CUCUCU…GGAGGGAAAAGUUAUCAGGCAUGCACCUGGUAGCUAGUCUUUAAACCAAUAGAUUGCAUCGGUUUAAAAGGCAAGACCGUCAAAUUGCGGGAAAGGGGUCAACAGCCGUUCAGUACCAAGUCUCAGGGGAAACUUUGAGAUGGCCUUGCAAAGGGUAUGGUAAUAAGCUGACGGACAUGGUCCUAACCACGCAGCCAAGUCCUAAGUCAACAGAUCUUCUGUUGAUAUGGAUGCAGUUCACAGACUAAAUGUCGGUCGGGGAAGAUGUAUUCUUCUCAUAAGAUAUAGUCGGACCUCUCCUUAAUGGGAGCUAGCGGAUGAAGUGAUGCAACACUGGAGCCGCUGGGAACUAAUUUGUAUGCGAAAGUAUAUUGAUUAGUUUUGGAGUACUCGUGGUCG;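 further: selection with 25 µg/mL kanamycin versus none on LB agar overnight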
measurement.parameters: 37 °C
measure: self-splicing fitness (ln)

1. UGAAAGCAAUAUUACGUCUC ... -2.18
2. UGCGAGCAAUAUUACGUAAU ... -1.91
3. GUCUAGCAAUAUUACGCUUU ... -0.192
4. GGGUAGCAAUAUUACGGUUC ... 0.258
5. CCAUAGCAAUAUUACGCUCA ... -2.16
6. CGCCAGCAAUAUUACGGCUA ... -0.172
7. CCGCAGCAAUAUUACGGUGA ... -0.784
8. CGACAGCAAUAUUACGUUCC ... -0.935
9. UAUCAGCAAUAUUACGCUCG ... 0.35
10. AAGCAGCAAUAUUACGGGCG ... -0.638
11. CGAUAGCAAUAUUACGGAUA ... -0.838
12. AUCCAGCAAUAUUACGGCAC ... -0.31
13. AUAGAGCAAUAUUACGAGCA ... -0.949
14. UCAUAGCAAUAUUACGCCUU ... -1.52
15. UUCAAGCAAUAUUACGACAA ... -0.304
16. CGUGAGCAAUAUUACGUAAC ... -2.78
17. AACCAGCAAUAUUACGCUGA ... -1.51
18. CACAAGCAAUAUUACGGCUA ... -1.26
19. CUACAGCAAUAUUACGCCGC ... -3.62
20. AAGUAGCAAUAUUACGACUU ... -1.34
21. CCUCAGCAAUAUUACGAUGA ... -2.8
22. GCAGAGCAAUAUUACGUCGA ... -1.58
23. UCAGAGCAAUAUUACGCUUU ... -2.84
24. GCUCAGCAAUAUUACGCCCA ... -1.09
25. CCAAAGCAAUAUUACGCCUC ... -2.52
26. GGGAAGCAAUAUUACGUUUU ... -1.62
27. GUGAAGCAAUAUUACGCGAA ... -0.479
28. CAGGAGCAAUAUUACGAACC ... -1.07
29. AAUGAGCAAUAUUACGGAUG ... -2.23
30. GACCAGCAAUAUUACGGAGC ... -0.0895
31. AAUUAGCAAUAUUACGGGAA ... -1.88
32. ACAGAGCAAUAUUACGGUCG ... -1.36
33. AGCUAGCAAUAUUACGCACU ... -0.466
34. GUUGAGCAAUAUUACGGGAG ... -2.9

====

Recorded measurements of self-splicing fitness (ln), one per entry
experiment.description: self-splicing fitness, log relative to wild type (ln ratio); higher = more splicing; Tetrahymena group I intron in knt gene, E. coli kanamycin selection, DiMSum; sequences stand for … in CUCUCU…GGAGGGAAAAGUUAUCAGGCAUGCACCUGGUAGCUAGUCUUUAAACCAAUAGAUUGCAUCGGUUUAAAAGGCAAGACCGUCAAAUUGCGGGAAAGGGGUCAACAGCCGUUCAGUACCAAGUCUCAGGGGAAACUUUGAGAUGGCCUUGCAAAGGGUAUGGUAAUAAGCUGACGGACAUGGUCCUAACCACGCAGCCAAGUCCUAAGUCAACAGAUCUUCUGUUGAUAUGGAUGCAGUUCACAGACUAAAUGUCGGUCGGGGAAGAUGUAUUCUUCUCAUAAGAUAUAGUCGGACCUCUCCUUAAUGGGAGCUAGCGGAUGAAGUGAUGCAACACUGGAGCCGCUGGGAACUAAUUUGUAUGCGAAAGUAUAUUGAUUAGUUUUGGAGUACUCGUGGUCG
measurement.parameters: 30 °C
measure: self-splicing fitness (ln)

1) UGUCAGCAAUAUUACGAGUA ... -1.31
2) UCGUAGCAAUAUUACGGUGG ... -2.84
3) CUGAAGCAAUAUUACGUUAC ... -3.27
4) CCUAAGCAAUAUUACGGAUU ... -4.68
5) UCUGAGCAAUAUUACGUUAU ... -3.6
6) UUUUAGCAAUAUUACGUAGU ... -1.9
7) GCUAAGCAAUAUUACGCAGG ... -2.8
8) CCGUAGCAAUAUUACGUUAC ... -4.02

====

experiment.description: self-splicing fitness, log relative to wild type (ln ratio); higher = more splicing; Tetrahymena group I intron in knt gene, E. coli kanamycin selection, DiMSum; sequences stand for … in CUCUCU…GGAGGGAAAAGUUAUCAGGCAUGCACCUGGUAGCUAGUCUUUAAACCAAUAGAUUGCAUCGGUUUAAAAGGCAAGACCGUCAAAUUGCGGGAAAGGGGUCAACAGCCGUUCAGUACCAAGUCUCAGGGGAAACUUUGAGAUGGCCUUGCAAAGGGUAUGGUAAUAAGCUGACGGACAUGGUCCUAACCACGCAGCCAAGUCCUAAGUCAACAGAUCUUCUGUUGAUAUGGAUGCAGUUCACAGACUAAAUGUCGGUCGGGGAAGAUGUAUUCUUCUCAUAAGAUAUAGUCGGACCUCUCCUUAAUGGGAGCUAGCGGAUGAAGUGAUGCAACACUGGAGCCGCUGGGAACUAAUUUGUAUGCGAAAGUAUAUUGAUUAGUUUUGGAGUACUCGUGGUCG
measurement.parameters: 37 °C
Recorded measurements of self-splicing fitness (ln), one per entry
measure: self-splicing fitness (ln)

1) AUAUAGCAAUAUUACGCCCA ... -0.688
2) CACGAGCAAUAUUACGCACA ... -1.17
3) GCUGAGCAAUAUUACGCGUC ... -0.941
4) UACCAGCAAUAUUACGCUCA ... 0.378
5) CUUGAGCAAUAUUACGGUUU ... -2.66
6) AAUAAGCAAUAUUACGAUCC ... -0.374
7) AUAUAGCAAUAUUACGCAUG ... -0.477
8) UAUGAGCAAUAUUACGGAUU ... -2.28
9) GCCCAGCAAUAUUACGCGCU ... -2.41
10) CCGAAGCAAUAUUACGGGGC ... -1.64
11) AGCAAGCAAUAUUACGACGC ... 0.048
12) UGUAAGCAAUAUUACGAACC ... 0.667
13) UGCGAGCAAUAUUACGAUCA ... 0.104
14) UGGUAGCAAUAUUACGCCUG ... 0.675
15) CGUCAGCAAUAUUACGUGAC ... -2.82
16) AUCCAGCAAUAUUACGUUGU ... -2.09

====

experiment.description: self-splicing fitness, log relative to wild type (ln ratio); higher = more splicing; Tetrahymena group I intron in knt gene, E. coli kanamycin selection, DiMSum; sequences stand for … in CUCUCU…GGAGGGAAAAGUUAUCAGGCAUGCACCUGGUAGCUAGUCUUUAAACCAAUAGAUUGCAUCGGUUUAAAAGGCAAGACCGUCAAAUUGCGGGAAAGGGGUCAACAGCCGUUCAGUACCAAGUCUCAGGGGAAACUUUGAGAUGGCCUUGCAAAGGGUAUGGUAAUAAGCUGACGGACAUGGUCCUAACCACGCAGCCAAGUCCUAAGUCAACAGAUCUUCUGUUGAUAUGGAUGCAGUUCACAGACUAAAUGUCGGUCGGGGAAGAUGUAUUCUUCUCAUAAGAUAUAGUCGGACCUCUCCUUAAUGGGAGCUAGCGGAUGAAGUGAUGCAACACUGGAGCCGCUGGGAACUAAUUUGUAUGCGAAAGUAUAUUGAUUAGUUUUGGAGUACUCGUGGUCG
measurement.parameters: 30 °C
Given measured self-splicing fitness (ln), output y if it is greater than or equal to -3 and n if not.

1) GAUAAGCAAUAUUACGCGUA ... y
2) UUAAAGCAAUAUUACGAACA ... y
3) GAAGAGCAAUAUUACGUCAG ... n
4) AGCAAGCAAUAUUACGGUUU ... y
5) GAUCAGCAAUAUUACGCGUC ... y
6) CGAUAGCAAUAUUACGCUUC ... n
7) UACCAGCAAUAUUACGGAAA ... y
